Target: CaV2.2 (Homo sapiens, UniProt Q00975)
Construct: expressed in transfected cells; host or cells: HEK293
Sequence (Q00975 whole entry): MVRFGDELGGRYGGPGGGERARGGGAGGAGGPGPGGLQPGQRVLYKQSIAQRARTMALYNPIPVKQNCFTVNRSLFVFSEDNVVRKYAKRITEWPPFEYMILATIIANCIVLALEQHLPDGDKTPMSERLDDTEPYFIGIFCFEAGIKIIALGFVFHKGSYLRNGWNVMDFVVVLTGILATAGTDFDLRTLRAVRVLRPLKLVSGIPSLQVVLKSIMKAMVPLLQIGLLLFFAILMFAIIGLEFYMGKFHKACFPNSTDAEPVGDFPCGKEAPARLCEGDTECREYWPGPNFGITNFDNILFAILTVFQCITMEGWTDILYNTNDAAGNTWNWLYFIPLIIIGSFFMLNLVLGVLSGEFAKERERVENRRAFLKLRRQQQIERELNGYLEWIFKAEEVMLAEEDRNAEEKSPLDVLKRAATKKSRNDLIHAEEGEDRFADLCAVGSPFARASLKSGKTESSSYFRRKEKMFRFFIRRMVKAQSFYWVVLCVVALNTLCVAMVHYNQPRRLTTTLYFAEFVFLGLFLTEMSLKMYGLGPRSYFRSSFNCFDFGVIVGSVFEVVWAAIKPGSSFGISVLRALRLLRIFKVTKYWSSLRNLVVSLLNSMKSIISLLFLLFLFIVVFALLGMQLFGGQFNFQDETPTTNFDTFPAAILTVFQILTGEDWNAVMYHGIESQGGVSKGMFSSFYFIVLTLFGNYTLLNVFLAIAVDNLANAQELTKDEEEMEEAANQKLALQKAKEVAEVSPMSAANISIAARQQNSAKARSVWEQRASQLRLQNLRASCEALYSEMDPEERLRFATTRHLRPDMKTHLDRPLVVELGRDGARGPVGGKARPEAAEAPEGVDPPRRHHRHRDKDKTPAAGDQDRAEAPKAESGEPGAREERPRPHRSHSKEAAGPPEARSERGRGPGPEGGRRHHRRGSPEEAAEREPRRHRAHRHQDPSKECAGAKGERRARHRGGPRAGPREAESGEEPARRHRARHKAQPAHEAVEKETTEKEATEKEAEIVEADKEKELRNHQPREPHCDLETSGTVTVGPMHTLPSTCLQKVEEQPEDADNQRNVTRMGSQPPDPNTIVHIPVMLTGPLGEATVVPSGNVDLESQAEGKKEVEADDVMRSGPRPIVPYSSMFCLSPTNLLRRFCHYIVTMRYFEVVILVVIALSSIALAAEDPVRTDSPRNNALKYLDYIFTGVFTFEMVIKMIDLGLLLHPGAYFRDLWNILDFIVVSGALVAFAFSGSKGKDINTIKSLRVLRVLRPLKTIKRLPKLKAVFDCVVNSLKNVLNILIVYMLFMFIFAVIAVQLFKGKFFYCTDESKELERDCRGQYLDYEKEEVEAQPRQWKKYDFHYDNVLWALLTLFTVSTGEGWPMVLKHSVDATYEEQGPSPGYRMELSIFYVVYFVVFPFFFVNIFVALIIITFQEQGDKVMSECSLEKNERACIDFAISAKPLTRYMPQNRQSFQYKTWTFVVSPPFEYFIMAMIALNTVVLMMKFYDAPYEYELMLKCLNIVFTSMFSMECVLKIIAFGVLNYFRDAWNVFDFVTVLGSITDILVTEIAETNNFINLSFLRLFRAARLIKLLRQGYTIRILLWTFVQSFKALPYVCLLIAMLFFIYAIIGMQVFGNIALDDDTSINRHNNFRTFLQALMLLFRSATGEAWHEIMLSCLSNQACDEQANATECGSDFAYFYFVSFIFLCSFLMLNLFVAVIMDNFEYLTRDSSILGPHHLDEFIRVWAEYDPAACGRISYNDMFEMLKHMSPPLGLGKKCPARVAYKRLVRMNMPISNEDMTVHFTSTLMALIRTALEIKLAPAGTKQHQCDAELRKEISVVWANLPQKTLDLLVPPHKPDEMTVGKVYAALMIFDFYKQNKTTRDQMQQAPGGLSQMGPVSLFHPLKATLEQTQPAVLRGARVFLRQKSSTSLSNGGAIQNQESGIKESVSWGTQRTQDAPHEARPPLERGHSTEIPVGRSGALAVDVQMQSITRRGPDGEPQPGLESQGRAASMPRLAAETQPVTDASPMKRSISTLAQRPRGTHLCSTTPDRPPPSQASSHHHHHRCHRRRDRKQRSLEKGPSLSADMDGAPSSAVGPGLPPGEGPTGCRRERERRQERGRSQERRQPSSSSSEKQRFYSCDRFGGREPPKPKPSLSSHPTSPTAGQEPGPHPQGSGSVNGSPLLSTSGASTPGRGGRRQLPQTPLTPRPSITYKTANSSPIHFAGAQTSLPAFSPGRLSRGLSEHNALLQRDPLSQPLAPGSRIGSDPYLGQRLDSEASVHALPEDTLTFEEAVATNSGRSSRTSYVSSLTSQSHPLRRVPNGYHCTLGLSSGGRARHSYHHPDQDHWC
Sequence (P54284 whole entry partner): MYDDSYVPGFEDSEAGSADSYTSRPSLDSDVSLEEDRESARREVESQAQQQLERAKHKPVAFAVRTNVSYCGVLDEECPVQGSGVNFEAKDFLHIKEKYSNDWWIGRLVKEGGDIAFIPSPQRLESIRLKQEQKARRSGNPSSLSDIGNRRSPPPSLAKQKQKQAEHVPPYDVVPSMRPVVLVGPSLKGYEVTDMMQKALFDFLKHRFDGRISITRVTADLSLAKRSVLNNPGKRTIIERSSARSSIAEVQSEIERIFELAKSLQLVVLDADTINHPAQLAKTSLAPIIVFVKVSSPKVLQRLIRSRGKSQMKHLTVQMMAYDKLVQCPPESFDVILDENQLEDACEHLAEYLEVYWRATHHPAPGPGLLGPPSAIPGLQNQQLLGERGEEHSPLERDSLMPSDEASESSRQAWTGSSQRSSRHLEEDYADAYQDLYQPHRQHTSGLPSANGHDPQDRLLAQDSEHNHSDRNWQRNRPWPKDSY
Sequence (P54289 25-946 partner limits assumed): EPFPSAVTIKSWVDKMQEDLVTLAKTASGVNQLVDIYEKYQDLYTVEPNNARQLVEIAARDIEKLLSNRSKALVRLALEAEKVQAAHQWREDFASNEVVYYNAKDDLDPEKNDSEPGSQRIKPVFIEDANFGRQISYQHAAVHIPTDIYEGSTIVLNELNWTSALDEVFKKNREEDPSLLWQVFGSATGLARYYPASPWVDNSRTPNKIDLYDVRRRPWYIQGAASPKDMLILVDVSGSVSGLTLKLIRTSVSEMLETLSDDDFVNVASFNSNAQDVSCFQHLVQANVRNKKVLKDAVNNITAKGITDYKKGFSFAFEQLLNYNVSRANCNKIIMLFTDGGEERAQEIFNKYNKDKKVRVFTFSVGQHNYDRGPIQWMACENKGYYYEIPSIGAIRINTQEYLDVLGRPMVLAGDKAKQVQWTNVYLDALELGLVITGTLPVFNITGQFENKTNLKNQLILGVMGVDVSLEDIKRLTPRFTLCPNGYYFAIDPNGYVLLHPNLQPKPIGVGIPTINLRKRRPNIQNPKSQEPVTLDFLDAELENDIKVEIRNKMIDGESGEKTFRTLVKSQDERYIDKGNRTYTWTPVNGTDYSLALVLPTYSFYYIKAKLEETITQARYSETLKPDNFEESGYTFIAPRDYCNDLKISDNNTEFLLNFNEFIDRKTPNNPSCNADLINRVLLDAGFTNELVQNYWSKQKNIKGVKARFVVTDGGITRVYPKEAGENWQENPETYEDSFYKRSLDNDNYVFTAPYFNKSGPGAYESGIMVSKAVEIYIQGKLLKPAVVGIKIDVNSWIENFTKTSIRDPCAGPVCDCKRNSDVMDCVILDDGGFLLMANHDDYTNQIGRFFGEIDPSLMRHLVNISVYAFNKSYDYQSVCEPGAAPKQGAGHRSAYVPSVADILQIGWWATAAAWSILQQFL
Sequence (P54289 947-1103 partner limits assumed): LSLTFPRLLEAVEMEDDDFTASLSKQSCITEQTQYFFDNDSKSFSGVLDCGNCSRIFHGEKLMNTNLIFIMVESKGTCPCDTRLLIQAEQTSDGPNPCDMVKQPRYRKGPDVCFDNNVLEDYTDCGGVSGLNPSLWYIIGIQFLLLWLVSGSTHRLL
Assay: VIPR optical membrane potential assay with electrical stimulation
Assay type: cell-based
Conditions: Table 3, biological assay data; read-out: IC50
pIC50: −log10 of the molar value.
METRIC: pIC50

| MOLECULE | RESULT |
| --- | --- |
| CCCCN(C)C(=O)c1[nH]c2ccc(S(=O)(=O)N3CC(C)CC(C)C3)cc2c1C (centres unmarked) | > 5.30 |
| Cc1c(C(=O)N2CCCC2)oc2ccc(S(=O)(=O)N3CCCCC3)cc12 | 4.70 to 5.30 |
| O=C(NC1CC1)c1cc2cc(NS(=O)(=O)c3ccccc3)ccc2[nH]1 | > 4.70 |
| CCCCN(C)C(=O)c1cc2cc(S(=O)(=O)N3CCCCCC3)ccc2o1 | > 5.30 |
| Cc1c(C(=O)NC2CC2)oc2ccc(S(=O)(=O)Nc3ncccn3)cc12 | > 4.70 |
| CCNC(=O)c1oc2ccc(S(=O)(=O)N3CC(C)CC(C)C3)cc2c1C (centres unmarked) | > 5.30 |
| Cc1c(C(=O)NCCc2ccccc2)oc2ccc(S(=O)(=O)N3CCCC(C)C3)cc12 (centres unmarked) | > 5.30 |
| Cc1c(C(=O)NC2CCCC2)oc2ccc(S(=O)(=O)N3CCCCC3)cc12 | > 5.30 |

###

Target: CaV2.2 (Homo sapiens, UniProt Q00975)
Construct: expressed in transfected cells; host or cells: HEK293
Assay: VIPR optical membrane potential assay with electrical stimulation
Type: cell-based
Conditions: Table 3, biological assay data; read-out: IC50
The following compounds are shown together with reported IC50 values.
METRIC: IC50

| COMPOUND | MEASUREMENT TARGET | METRIC | RESULT |
| --- | --- | --- | --- |
| Cc1c(C(=O)N(CCN(C)C)Cc2ccccc2)oc2ccc(S(=O)(=O)N3CCC(C)CC3)cc12 | CaV2.2 (Homo sapiens, UniProt Q00975) | IC50 | < 5 µM |
| CNC(=O)c1cc2cc(S(=O)(=O)N3CC(C)CC(C)C3)ccc2[nH]1 (centres unmarked) | CaV2.2 (Homo sapiens, UniProt Q00975) | IC50 | < 5 µM |
| CC1CC(C)CN(C(=O)c2cc3cc(S(=O)(=O)N4CC(C)CC(C)C4)ccc3o2)C1 (centres unmarked) | CaV2.2 (Homo sapiens, UniProt Q00975) | IC50 | < 5 µM |
| O=C(NCc1ccccc1)c1cc2cc(S(=O)(=O)N3CCCCCC3)ccc2n1S(=O)(=O)c1ccccc1 | CaV2.2 (Homo sapiens, UniProt Q00975) | IC50 | < 5 µM |
| CC1CC(C)CN(S(=O)(=O)c2ccc3[nH]c(C(=O)NC(C)C)cc3c2)C1 (centres unmarked) | CaV2.2 (Homo sapiens, UniProt Q00975) | IC50 | < 5 µM |
| COc1ccccc1CNC(=O)c1oc2ccc(S(=O)(=O)N3CCOCC3)cc2c1C | CaV2.2 (Homo sapiens, UniProt Q00975) | IC50 | < 20 µM |
| CC1CC(C)CN(S(=O)(=O)c2ccc3[nH]c(C(=O)NCC4CCOCC4)cc3c2)C1 (centres unmarked) | CaV2.2 (Homo sapiens, UniProt Q00975) | IC50 | < 5 µM |
| Cc1c(C(=O)NC2CCCC2)n(C)c2ccc(S(=O)(=O)N3CCC(C)CC3)cc12 | CaV2.2 (Homo sapiens, UniProt Q00975) | IC50 | < 5 µM |
| Cc1c(C(=O)NC2CCCC2)oc2ccc(S(=O)(=O)N3CCC(C)CC3)cc12 | CaV2.2 (Homo sapiens, UniProt Q00975) | IC50 | < 5 µM |
| CNC(=O)c1oc2ccc(S(=O)(=O)N3CCOCC3)cc2c1C | CaV2.2 (Homo sapiens, UniProt Q00975) | IC50 | < 20 µM |
| CC(C)N(C(=O)c1cc2cc(S(=O)(=O)N3CCCCCC3)ccc2[nH]1)C(C)C | CaV2.2 (Homo sapiens, UniProt Q00975) | IC50 | 5 to 20 µM |
| CC1CCN(S(=O)(=O)c2ccc3oc(C(=O)NCC4CCCO4)cc3c2)CC1 (centres unmarked) | CaV2.2 (Homo sapiens, UniProt Q00975) | IC50 | 5 to 20 µM |
| Cc1c(C(=O)NCCN2CCOCC2)oc2ccc(S(=O)(=O)N3CCC(C)CC3)cc12 | CaV2.2 (Homo sapiens, UniProt Q00975) | IC50 | 5 to 20 µM |
| CC1CCCCN1C(=O)c1cc2cc(S(=O)(=O)N3CCCCCC3)ccc2o1 (centres unmarked) | CaV2.2 (Homo sapiens, UniProt Q00975) | IC50 | 5 to 20 µM |
| CC1CC(C)CN(S(=O)(=O)c2ccc3oc(C(=O)NCc4ccccc4)cc3c2)C1 (centres unmarked) | CaV2.2 (Homo sapiens, UniProt Q00975) | IC50 | < 5 µM |
| Cc1c(C(=O)NC2CC2)oc2ccc(S(=O)(=O)NCc3ccc(F)cc3)cc12 | CaV2.2 (Homo sapiens, UniProt Q00975) | IC50 | < 20 µM |
| Cc1c(C(=O)N2CCCC2)oc2ccc(S(=O)(=O)N3CCC(C)CC3)cc12 | CaV2.2 (Homo sapiens, UniProt Q00975) | IC50 | 5 to 20 µM |

###

Molecular target: CaV2.2 (Homo sapiens)
Construct: expressed in transfected cells; host or cells: HEK293
Assay: VIPR optical membrane potential assay with electrical stimulation
Format: cell-based
Readings of IC50 for the listed compounds

| COMPOUND | IC50 |
| --- | --- |
| O=C(c1cc2cc(S(=O)(=O)N3CCCCCC3)ccc2[nH]1)N1CCC2(CC1)OCCO2 | 5 to 20 µM |
| Cc1c(C(=O)N2CCC3(CC2)OCCO3)oc2ccc(S(=O)(=O)N3CCCCC3)cc12 | 5 to 20 µM |
| Cc1c(C(=O)N2CCC3(CC2)OCCO3)[nH]c2ccc(S(=O)(=O)N3CC(C)CC(C)C3)cc12 (stereo not shown) | < 5 µM |
| Cc1c(C(=O)N(C)Cc2ccccc2)oc2ccc(S(=O)(=O)N3CC(C)CC(C)C3)cc12 (stereo not shown) | < 5 µM |

###

Molecular target: CaV2.2 (Homo sapiens)
Construct: expressed in transfected cells; host or cells: HEK293
Experiment: VIPR optical membrane potential assay with electrical stimulation
Assay type: cell-based
Details: Table 3, biological assay data; read-out: IC50
Listed here: items and their measured IC50.
METRIC: IC50

| MOLECULE | RESULT |
| --- | --- |
| Cc1c(C(=O)NCC2CCOCC2)[nH]c2ccc(S(=O)(=O)N3CCC(C)CC3)cc12 | < 20 µM |
| Cc1c(C(=O)NCC2CCOCC2)oc2ccc(S(=O)(=O)N3CCCC(C)C3)cc12 (stereo not drawn) | 5 to 20 µM |
| O=C(NC1CCCCC1)c1cc2cc(S(=O)(=O)N3CCCCCC3)ccc2o1 | < 5 µM |
| Cc1c(C(=O)NCc2ccccc2)[nH]c2ccc(S(=O)(=O)N3CCC(C)CC3)cc12 | < 5 µM |
| CC1CCN(S(=O)(=O)c2ccc3[nH]c(C(=O)NCc4ccccc4)cc3c2)CC1 | < 5 µM |
| CC1CC(C)CN(S(=O)(=O)c2ccc3[nH]c(C(=O)N4CCCCC4C)cc3c2)C1 (stereo not drawn) | < 5 µM |
| CNC(=O)c1cc2cc(S(=O)(=O)N3CCC(C)CC3)ccc2o1 | 5 to 20 µM |
| CC1CC(C)CN(S(=O)(=O)c2ccc3c(c2)cc(C(=O)NC2CC2)n3S(=O)(=O)c2ccccc2)C1 (stereo not drawn) | < 5 µM |
| Cc1c(C(=O)N(C)Cc2ccccc2)oc2ccc(S(=O)(=O)N3CCCC(C)C3)cc12 (stereo not drawn) | < 5 µM |
| CC1CC(C)CN(S(=O)(=O)c2ccc3c(c2)cc(C(=O)N(C)C)n3C)C1 (stereo not drawn) | < 5 µM |
| Cc1c(C(=O)NC2CCCC2)[nH]c2ccc(S(=O)(=O)N3CCCCCC3)cc12 | 5 to 20 µM |
| CCN(CC)S(=O)(=O)c1ccc2oc(C(=O)NCC3CCCO3)c(C)c2c1 (stereo not drawn) | < 20 µM |
| Cc1c(C(=O)NCC2CCCO2)oc2ccc(S(=O)(=O)N3CCCCC3)cc12 (stereo not drawn) | 5 to 20 µM |
| CNC(=O)c1oc2ccc(S(=O)(=O)N3CCCCC3)cc2c1C | < 20 µM |
| CS(=O)(=O)Nc1ccc2[nH]c(C(=O)NC3CC3)cc2c1 | < 20 µM |
| CC1CC(C)CN(S(=O)(=O)c2ccc3[nH]c(C(=O)N4CCCC4)cc3c2)C1 (stereo not drawn) | 5 to 20 µM |
| Cc1c(C(=O)N(C)Cc2ccccc2)oc2ccc(S(=O)(=O)N3CCC(C)CC3)cc12 | < 5 µM |
| CCN(CC)C(=O)c1cc2cc(S(=O)(=O)N3CC(C)CC(C)C3)ccc2n1CCCN(C)C (stereo not drawn) | 5 to 20 µM |
| CCN(CC)C(=O)c1cc2cc(S(=O)(=O)N3CCC(C)CC3)ccc2o1 | < 5 µM |
| CC1CCN(S(=O)(=O)c2ccc3[nH]c(C(=O)N4CC(C)CC(C)C4)cc3c2)CC1 (stereo not drawn) | 5 to 20 µM |
| CCCCN(C)C(=O)c1cc2cc(S(=O)(=O)N3CC(C)CC(C)C3)ccc2[nH]1 (stereo not drawn) | < 5 µM |
| CCN(CC)C(=O)c1cc2cc(S(=O)(=O)N3CC(C)CC(C)C3)ccc2n1CC(O)CN1CCN(C)CC1 (stereo not drawn) | < 5 µM |
| CC1CCCCN1C(=O)c1cc2cc(S(=O)(=O)N3CCCCCC3)ccc2[nH]1 (stereo not drawn) | < 20 µM |
| Cc1c(C(=O)N2CCC(C)CC2)oc2ccc(S(=O)(=O)N3CCOCC3)cc12 | < 20 µM |
| CC1CCN(S(=O)(=O)c2ccc3[nH]c(C(=O)NC4CCCC4)cc3c2)CC1 | < 5 µM |
| Cc1c(C(=O)N2CCCCC2C)[nH]c2ccc(S(=O)(=O)N3CC(C)CC(C)C3)cc12 (stereo not drawn) | < 5 µM |
| Cc1c(C(=O)N2CC(C)CC(C)C2)[nH]c2ccc(S(=O)(=O)N3CC(C)CC(C)C3)cc12 (stereo not drawn) | < 5 µM |
| Cc1c(C(=O)N2CCCC(C)C2)oc2ccc(S(=O)(=O)N3CCCCCC3)cc12 (stereo not drawn) | < 5 µM |
| CC1CCN(S(=O)(=O)c2ccc3oc(C(=O)N(C(C)C)C(C)C)cc3c2)CC1 | < 5 µM |
| CC1CC(C)CN(S(=O)(=O)c2ccc3c(c2)cc(C(=O)N2CCCCC2)n3S(=O)(=O)c2ccc(F)cc2)C1 (stereo not drawn) | < 5 µM |
| Cc1c(C(=O)NC2CC2)oc2ccc(S(=O)(=O)N3CCC(F)(F)CC3)cc12 | 5 to 20 µM |
| Cc1c(C(=O)N2CCCCCC2)oc2ccc(S(=O)(=O)N3CCCCCC3)cc12 | < 5 µM |
| Cc1c(C(=O)NCC2CCCO2)oc2ccc(S(=O)(=O)N3CCCCCC3)cc12 (stereo not drawn) | 5 to 20 µM |
